measured_quantity: melting point (°C)

>  <compound>
Nc1ccc(OC(F)(F)F)cc1

>  <endpoint_value>
63.5

$$$$
>  <compound>
Cc1ccccc1CO[C@H]1COCO[C@H]1C (relative stereo)

>  <endpoint_value>
54

$$$$

* * *

measured_quantity: melting point (°C)

>  <molecule>
CCCn1c(C)nn(-c2ccc(N3CCN(c4ccc(OC)cc4)CC3)cc2)c1=O

>  <units_of_measure>
°C

>  <melting point>
202

$$$$
>  <molecule>
CC(C)Oc1ccccc1C1(N)C(=O)Nc2ccc(Cl)cc21 (stereo not given)

>  <units_of_measure>
°C

>  <melting point>
193

$$$$
>  <molecule>
CC(CC1=C(O)C(=O)c2ccccc2C1=O)C(F)(F)F (stereo not given)

>  <units_of_measure>
°C

>  <melting point>
168

$$$$

* * *

measured_quantity: melting point (°C)

>  <smiles_notation>
COc1ccc(CN2CCC(C(=O)NO)(S(=O)(=O)c3ccc(OC)cc3)CC2)cc1

>  <endpoint_value>
175

$$$$
>  <smiles_notation>
O=C(Cc1noc2ccccc12)N[C@H]1CC[C@H](CCN2CCN(c3nccc4c3OCC4)CC2)CC1

>  <endpoint_value>
211

$$$$

* * *

# melting point per record follows

>  <molecule>
COc1cc(N2CCN(C(=O)c3ccc(Nc4ccnc5cc(C(F)(F)F)ccc45)cc3)CC2)nc(OC)n1

>  <endpoint_value>
260 to 262 °C

$$$$
>  <molecule>
CCS(=O)(=O)N[C@H](C(=O)NCCc1cc(Br)c(OCc2ccccc2)c(OC)c1)C(C)C

>  <endpoint_value>
128 to 130 °C

$$$$

(Q) Param item = N[C@H]1CCCC[C@H]1CCC(O)(P(=O)(O)O)P(=O)(O)O (relative stereo) ; retrieve measured melting point.
(A) 131 to 133 °C

(Q) Another: CS(=O)(=O)c1cccc(NC(=O)c2cnn3c(C(F)(F)F)cc(-c4ccc(C(F)(F)F)cc4)nc23)c1
(A) 259 °C

* * *

measured_quantity: melting point

Below, each entry is followed by its recorded melting point result.
>  <compound>
COc1ccc(C(=O)Nc2c(Cl)cncc2Cl)cc1OC1COCC1OC (stereo unspecified)

>  <endpoint_value>
175 to 177 °C

$$$$
>  <compound>
CCCCCCCCCCC(=O)NCCCCCCCCCCCC(=O)O

>  <endpoint_value>
102 to 104 °C

$$$$

(Q) Endpoint output: melting point of CS(=O)(=O)c1ccc(N)c(C#N)c1 . Value?
(A) 155 to 157 °C

(Q) And what about the compound C=CCC(N)c1cccc(OC)c1 (stereo unspecified) ?
(A) 30 °C

(Q) Consider next the compound Cc1cc(=O)c(-c2ccc(Oc3ccc(S(C)(=O)=O)cc3)cc2)c(C)o1 in the same way.
(A) 170 to 173 °C

(Q) Follow-up item: CC(C)(C)n1ncc(S)c(Br)c1=O
(A) 107 to 110 °C

* * *

Measured melting point accompanies every entry in the list below.

Solved cases below.
>  <compound>
N#Cc1cnc(-c2c(Cl)cc(C(F)(F)F)cc2Cl)[nH]1

>  <measured_quantity>
melting point

>  <endpoint_value>
210 to 212 °C

$$$$
>  <compound>
C=CCC1(CCNC(=O)C2CC2)c2cc(OC)ccc2CCC12OCCO2 (stereo unspecified)

>  <measured_quantity>
melting point

>  <endpoint_value>
94 to 95 °C

$$$$
>  <compound>
Cc1nnc(-c2ccc(C)c(Br)c2)o1

>  <measured_quantity>
melting point

>  <endpoint_value>
91 to 93 °C

$$$$
>  <compound>
O=C(NCc1ccccn1)Nc1cc(NC(=O)c2ccccn2)ccn1

>  <measured_quantity>
melting point

>  <endpoint_value>
206 to 207 °C

$$$$
>  <compound>
O=C(O)c1ccc(C(F)(F)F)nc1C(F)(F)F

>  <measured_quantity>
melting point

>  <endpoint_value>
102 to 104 °C

$$$$

Note: attention shifts to another entry.
(Q) Which melting point is reported for this compound? CC(C)(C)c1cc(-c2nn(CCCO)c3ncccc23)cc(C(C)(C)C)c1O
(A) 143 to 144 °C
